Species on record: Mus musculus
Experiment: Tested for antagonism of oxotremorine hypothermia (OX) in mice
Type: functional
EXPERIMENTAL READOUT: ED50

Below: 2 compounds and their reported ED50.
| COMPOUND | VALUE MEASURED |
| --- | --- |
| CC(N)c1nnc2n1-c1ccc(Cl)cc1C(c1ccccc1)=NC2 (stereo not drawn) | > 50 mg/kg |
| CC(N)c1nnc2n1-c1ccc(Cl)cc1C(c1ccccc1Cl)=NC2 (stereo not drawn) | > 50 mg/kg |

Now take the following compound into account.
Prompt line: Which ED50 is listed for CN(C)CCc1nnc2n1-c1ccc(Cl)cc1C(c1ccccc1Cl)=NC2 ?
Response line: > 50 mg/kg
